Data origin, for the record: patent US3943137A

assay: Hydrolysis of acylacronycinium salts in presence of complexing agents; type: physicochemical; conditions: water, pH 6, sodium gentisate 6 × 10^-2 M/l; 10^-4 M drug, water, 25° C., pH 6.0; read-out: Apparent half-life, t1/2

{"Molecule": "COc1cc2c(c3c1c(OC(C)=O)c1ccccc1[n+]3C)C=CC(C)(C)O2 [acetylacronycinium perchlorate, Acetylacronycinium Perchlorate]", "Unit tag": "h", "half-life at 100 µM": 4.33}

* * *

assay: Hydrolysis of acylacronycinium salts in presence of complexing agents; type: physicochemical; conditions: water, pH 6, sodium gentisate 0 M/l; 10^-4 M drug, water, 25° C., pH 6.0; read-out: Apparent half-life, t1/2
Outcome measure: half-life at 100 µM

{"Molecule": "COc1cc2c(c3c1c(OC(C)=O)c1ccccc1[n+]3C)C=CC(C)(C)O2 [acetylacronycinium perchlorate, Acetylacronycinium Perchlorate]", "Measurement": "23 min"}

* * *

experiment: Solubility; assay type: physicochemical; conditions: water, read-out: Solubility
Outcome measure: solubility

{"Compound": "COc1cc2c(c3c1c(OC(C)=O)c1ccccc1[n+]3C)C=CC(C)(C)O2 [acetylacronycinium perchlorate, Acetylacronycinium Perchlorate]", "Outcome measure": "solubility", "Measurement": "~250 µg/mL"}

* * *

assay: Hydrolysis of acylacronycinium salts in aqueous solution (no complexing agent); format: physicochemical; settings: methanol/water (90/10), pH 1.28, methanol/water (90/10), pH 1.28; read-out: t1/2 (hydrolysis)

{"Compound": "COc1cc2c(c3c1c(OC(C)=O)c1ccccc1[n+]3C)C=CC(C)(C)O2 [Acetylacronycinium Chloride]", "half-life [min]": 27.7}

* * *

Assay: Hydrolysis of acylacronycinium salts in presence of complexing agents
Type: physicochemical
Settings: water, about 10^-3 M drug, about 0.2 Molar sodium gentisate, water; reconstituted powder mixture; read-out: apparent hydrolytic half-life (converted)
Description: In studying the kinetics of hydrolysis of the aforesaid quaternary acyl acronycinium salts to yield acronycine, it was determined that the increased solubility and the rapid rate of hydrolysis were such that said quaternary derivatives were eminently well suited for use as pro-drugs. Nevertheless, the facility with which hydrolysis occurred in water presented one problem of too rapid precipitation from solution as a consequence of the formation of the slightly soluble acronycine free base. […]

{"Molecule": "COc1cc2c(c3c1c(OC(C)=O)c1ccccc1[n+]3C)C=CC(C)(C)O2 [acetylacronycinium perchlorate, Acetylacronycinium Perchlorate]", "half-life at 1000 µM": "~9.5 h"}

* * *

experiment: Hydrolysis of acylacronycinium salts in presence of complexing agents; type: physicochemical; settings: water, pH 6, sodium gentisate 2.5 × 10^-3 M/l; 10^-4 M drug, water, 25° C., pH 6.0; read-out: Apparent half-life, t1/2
Outcome measure: half-life at 100 µM (h)

{"Molecule": "COc1cc2c(c3c1c(OC(C)=O)c1ccccc1[n+]3C)C=CC(C)(C)O2 [acetylacronycinium perchlorate, Acetylacronycinium Perchlorate]", "Measurement": 1.55}

* * *

Assay: Hydrolysis of acylacronycinium salts in presence of complexing agents
Type: physicochemical
Conditions: 0.05 m gentisic acid, pH 2.78, gentisic acid (0.05 M), pH 2.78, 25°C; read-out: t1/2 (hydrolysis)
Protocol: In studying the kinetics of hydrolysis of the aforesaid quaternary acyl acronycinium salts to yield acronycine, it was determined that the increased solubility and the rapid rate of hydrolysis were such that said quaternary derivatives were eminently well suited for use as pro-drugs. Nevertheless, the facility with which hydrolysis occurred in water presented one problem of too rapid precipitation from solution as a consequence of the formation of the slightly soluble acronycine free base. […]

{"Compound": "CCC(=O)Oc1c2ccccc2[n+](C)c2c3c(cc(OC)c12)OC(C)(C)C=C3 [propionylacronycinium perchlorate, Propionylacronycinium Perchlorate]", "half-life [h]": 1.44}
